Source of measurements: a collection of fitness landscapes (doi:10.1038/s41467-024-54723-y)

molecular target: TetR (class B, Tn10) (UniProt P04483); assay: TetR repression strength (sort-seq, GFP reporter) (relative to tetO2 = 1); higher = stronger repression; conditions: E. coli
Sequence (P04483 whole entry): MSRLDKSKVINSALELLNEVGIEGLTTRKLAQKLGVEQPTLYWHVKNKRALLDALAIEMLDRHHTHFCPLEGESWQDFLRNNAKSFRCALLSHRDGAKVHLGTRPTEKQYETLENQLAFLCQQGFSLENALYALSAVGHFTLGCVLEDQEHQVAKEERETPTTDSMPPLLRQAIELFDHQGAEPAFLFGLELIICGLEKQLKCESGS
Over roughly 18,000 sequences, “TetR repression strength (sort-seq, GFP reporter)” has its median near 0.23; the highest 2% begin near 0.68. The entries come from a sample that favours the highest values as a whole.
Use Y when the recorded TetR repression strength is no lower than 0.3; use N when it is lower.

# entry-sequence, study-system, label
measured = [
    ("TCCCGCTAAGTTAGGGAGA", "TetR (class B, Tn10) (UniProt P04483)", "N"),
]

[Q] Threshold query (TetR repression strength >= 0.3) on TCCCCGAGAGTGCTGGAGA
[A] N

[Q] Does TCCCGTCTAGTAGTGGAGA have a reported TetR repression strength of at least 0.3?
[A] Y

[Q] Hi, just wondering whether TCCCTGAGAGTGCTGGAGA shows TetR repression strength of 0.3 or higher.
[A] Y

[Q] TetR repression strength >= 0.3 for TCCCCTTAAGTGGTAGAGA ?
[A] N

[Q] Could you tell me if the measured TetR repression strength of TCCCGCTTAGTGAGGGAGA reaches 0.3 or more?
[A] Y

[Q] Given the entry TCCCTTAGAGTGAGGGAGA , answer whether its TetR repression strength meets or surpasses 0.3.
[A] N

[Q] Could you verify whether the entry TCCCGCGGAGTCACTGAGA shows TetR repression strength of no less than 0.3?
[A] Y

[Q] Does TCCCCTCAAGTCGAGGAGA have a reported TetR repression strength of at least 0.3?
[A] N

[Q] Determine whether measured TetR repression strength meets or exceeds 0.3 for TCCCTTTTAGTGTGGGAGA
[A] Y
